# Test Protocol: Phase 1A pharmacokinetics of oral NNI-362 in lipid-based formulation (Cohorts F and G)
# Assay type: in vivo, human
# Measurement Conditions: human, plasma, po, 120 mg, Cohort F, 120 mg oral, SAD, lipid formulation, individual subjects
Quantity Kind: MRT inf

Molecule | Observed Value
CCOc1ccccc1NC(=S)N1CCCN(c2nc3cc(C)c(C)cc3cc2C#N)CC1 [NNI-362] | 7.35 h

###

# Test Protocol: Phase 1A pharmacokinetics of oral NNI-362 in lipid-based formulation (Cohorts F and G)
# Assay type: in vivo, human
# Measurement Conditions: human, plasma, po, 240 mg, Cohort G, 240 mg oral, SAD, lipid formulation, cohort mean

Query Smiles | half-life [h]
CCOc1ccccc1NC(=S)N1CCCN(c2nc3cc(C)c(C)cc3cc2C#N)CC1 | 2.58

###

# Test Protocol: Phase 1A pharmacokinetics of oral NNI-362 in lipid-based formulation (Cohorts F and G)
# Type: in vivo, human
# Measurement Conditions: human, plasma, po, 240 mg, Cohort G, 240 mg oral, MAD, lipid formulation, cohort mean; read-out: Cmax
Quantity Kind: Cmax (ng/mL)

Query Smiles | Observed Value
CCOc1ccccc1NC(=S)N1CCCN(c2nc3cc(C)c(C)cc3cc2C#N)CC1 | 0.239

###

# Test Protocol: Phase 1A pharmacokinetics of oral NNI-362 in lipid-based formulation (Cohorts F and G)
# Assay type: in vivo, human
# Measurement Conditions: human, plasma, po, 120 mg, Cohort F, 120 mg oral, SAD, lipid formulation, cohort mean

Compound | Value Unit | half-life
CCOc1ccccc1NC(=S)N1CCCN(c2nc3cc(C)c(C)cc3cc2C#N)CC1 [NNI-362] | min | 374

###

# Test Protocol: Phase 1A pharmacokinetics of oral NNI-362 in lipid-based formulation (Cohorts F and G)
# Type: in vivo, human
# Measurement Conditions: human, plasma, po, 120 mg, Cohort F, 120 mg oral, MAD, lipid formulation, cohort mean
Quantity Kind: AUC(0-t) (ng·h/mL)

Query Smiles | Value Unit | Observed Value
CCOc1ccccc1NC(=S)N1CCCN(c2nc3cc(C)c(C)cc3cc2C#N)CC1 | ng·h/mL | 1.68

###

# Test Protocol: Phase 1A pharmacokinetics of oral NNI-362 in 1% methylcellulose suspension (Cohorts A-E)
# Assay type: in vivo, human
# Measurement Conditions: human, plasma, 120 mg oral, SAD, individual subjects
Quantity Kind: AUC(0-inf) (ng·h/mL)

Query Smiles | Quantity Kind | Value Unit | Observed Value
CCOc1ccccc1NC(=S)N1CCCN(c2nc3cc(C)c(C)cc3cc2C#N)CC1 | AUC(0-inf) | ng·h/mL | 0.908

###

# Test Protocol: Phase 1A pharmacokinetics of oral NNI-362 in 1% methylcellulose suspension (Cohorts A-E)
# Format: in vivo, human
# Measurement Conditions: human, plasma, po, 120 mg, 120 mg oral, SAD, individual subjects, read-out: Cmax

Molecule | Cmax [ng/mL]
CCOc1ccccc1NC(=S)N1CCCN(c2nc3cc(C)c(C)cc3cc2C#N)CC1 [NNI-362] | 0.037

###

# Test Protocol: Phase 1A pharmacokinetics of oral NNI-362 in lipid-based formulation (Cohorts F and G)
# Assay type: in vivo, human
# Measurement Conditions: human, plasma, po, 240 mg, Cohort G, 240 mg oral, SAD, lipid formulation, cohort mean

Query Smiles | MRT inf / h
CCOc1ccccc1NC(=S)N1CCCN(c2nc3cc(C)c(C)cc3cc2C#N)CC1 | 16.7

###

# Test Protocol: Phase 1A pharmacokinetics of oral NNI-362 in lipid-based formulation (Cohorts F and G)
# Type: in vivo, human
# Measurement Conditions: human, plasma, po, 240 mg, Cohort G, 240 mg oral, SAD, lipid formulation, cohort mean; read-out: Tmax

Query Smiles | Tmax
CCOc1ccccc1NC(=S)N1CCCN(c2nc3cc(C)c(C)cc3cc2C#N)CC1 | 2.83 h

###

# Test Protocol: Phase 1A pharmacokinetics of oral NNI-362 in lipid-based formulation (Cohorts F and G)
# Type: in vivo, human
# Measurement Conditions: human, plasma, po, 240 mg, Cohort G, 240 mg oral, SAD, lipid formulation, cohort mean; read-out: mean Cmax
# Method: Exemplary Formulation F2 was prepared by slowly adding NNI-362 into a jar containing 100 mL of lipid-based MCT/Kolliphor EL/Beeswax (95/3/2% w/w) while mixing and then stirring until all powder is wet. […] PK data analysis was performed on the measurable plasma concentrations of NNI-362. The plasma concentration data were evaluated using Phoenix 64® WinNonlin® software (Version 8.3) to perform noncompartmental analysis. […] The correlation coefficient for the terminal phase was determined using WinNonlin. […]
Quantity Kind: Cmax

Compound | Quantity Kind | Observed Value
CCOc1ccccc1NC(=S)N1CCCN(c2nc3cc(C)c(C)cc3cc2C#N)CC1 [NNI-362] | Cmax | 0.099 ng/mL

###

# Test Protocol: Phase 1A pharmacokinetics of oral NNI-362 in lipid-based formulation (Cohorts F and G)
# Type: in vivo, human
# Measurement Conditions: human, plasma, po, 120 mg, Cohort F, 120 mg oral, MAD, lipid formulation, cohort mean; read-out: Tmax
Quantity Kind: Tmax (h)

Query Smiles | Quantity Kind | Observed Value
CCOc1ccccc1NC(=S)N1CCCN(c2nc3cc(C)c(C)cc3cc2C#N)CC1 | Tmax | 4.33

###

# Test Protocol: Phase 1A pharmacokinetics of oral NNI-362 in lipid-based formulation (Cohorts F and G)
# Type: in vivo, human
# Measurement Conditions: oral; Formulation F2, Cohort F, 120 mg single dose, Day 1, K3 EDTA human plasma, patient SRI-F-005, 8 h
Quantity Kind: concentration at 8 h (ng/mL)

Query Smiles | Quantity Kind | Observed Value
CCOc1ccccc1NC(=S)N1CCCN(c2nc3cc(C)c(C)cc3cc2C#N)CC1 | concentration at 8 h | 0.0263

###

# Test Protocol: Phase 1A pharmacokinetics of oral NNI-362 in lipid-based formulation (Cohorts F and G)
# Format: in vivo, human
# Measurement Conditions: human, plasma, po, 120 mg, Cohort F, 120 mg oral, MAD, lipid formulation, cohort mean
Quantity Kind: half-life (min)

Query Smiles | Observed Value
CCOc1ccccc1NC(=S)N1CCCN(c2nc3cc(C)c(C)cc3cc2C#N)CC1 | 732

###

# Test Protocol: Phase 1A pharmacokinetics of oral NNI-362 in lipid-based formulation (Cohorts F and G)
# Assay type: in vivo, human
# Measurement Conditions: human, plasma, po, 120 mg, Cohort F, 120 mg oral, SAD, lipid formulation, cohort mean; read-out: Cmax

Query Smiles | Cmax / ng/mL
CCOc1ccccc1NC(=S)N1CCCN(c2nc3cc(C)c(C)cc3cc2C#N)CC1 | 0.0924

###

# Test Protocol: Phase 1A pharmacokinetics of oral NNI-362 in 1% methylcellulose suspension (Cohorts A-E)
# Type: in vivo, human
# Measurement Conditions: human, plasma, 60 mg oral, SAD, individual subjects
Quantity Kind: half-life

Compound | Observed Value
CCOc1ccccc1NC(=S)N1CCCN(c2nc3cc(C)c(C)cc3cc2C#N)CC1 [NNI-362] | 4.09 h

###

# Test Protocol: Phase 1A pharmacokinetics of oral NNI-362 in lipid-based formulation (Cohorts F and G)
# Format: in vivo, human
# Measurement Conditions: human, plasma, po, 120 mg, Cohort F, 120 mg oral, SAD, lipid formulation, cohort mean; read-out: Tmax

Compound | Tmax [h]
CCOc1ccccc1NC(=S)N1CCCN(c2nc3cc(C)c(C)cc3cc2C#N)CC1 [NNI-362] | 3.58

###

# Test Protocol: Phase 1A pharmacokinetics of oral NNI-362 in 1% methylcellulose suspension (Cohorts A-E)
# Format: in vivo, human
# Measurement Conditions: human, plasma, 60 mg oral, SAD, individual subjects
# Experimental: A Phase 1A, randomized, placebo-controlled, single and multiple dose, dose-escalation study was conducted to evaluate the safety, tolerability and pharmacokinetics of oral NNI-362 in healthy aged volunteers 50 to 72 years of age. Subjects were fasted prior to dose administration. The plasma concentrations of NNI-362 were determined by a validated bioanalytical method using liquid chromatography-tandem mass spectrometry (LC-MS/MS). […]
Quantity Kind: AUC(0-inf)

Compound | Quantity Kind | Observed Value
CCOc1ccccc1NC(=S)N1CCCN(c2nc3cc(C)c(C)cc3cc2C#N)CC1 [NNI-362] | AUC(0-inf) | 0.622 ng·h/mL

###

# Test Protocol: Phase 1A pharmacokinetics of oral NNI-362 in lipid-based formulation (Cohorts F and G)
# Assay type: in vivo, human
# Measurement Conditions: human, plasma, po, 240 mg, Cohort G, 240 mg oral, MAD, lipid formulation, cohort mean

Compound | Value Unit | MRT inf
CCOc1ccccc1NC(=S)N1CCCN(c2nc3cc(C)c(C)cc3cc2C#N)CC1 [NNI-362] | h | 17.7

###

# Test Protocol: Phase 1A pharmacokinetics of oral NNI-362 in lipid-based formulation (Cohorts F and G)
# Assay type: in vivo, human
# Measurement Conditions: human, plasma, po, 240 mg, Cohort G, 240 mg oral, SAD, lipid formulation, cohort mean; read-out: Cmax

Query Smiles | Cmax [ng/mL]
CCOc1ccccc1NC(=S)N1CCCN(c2nc3cc(C)c(C)cc3cc2C#N)CC1 | 0.099
